method-notes: Metabolic stability in human hepatic microsome
Assay type: in vitro ADME
test-parameters: microsomes, pH 7.4; human hepatic microsome, NADPH(+); read-out: CL NADPH(+)
Positions of bridges follow the written chain, without caps; N, C: chain ends. Non-standard residues stand in square brackets, D forms with d. Residues, ends and D or L forms follow the SMILES beside them. *: point of attachment. NMeF = CN[C@@H](Cc1ccccc1)C(=O)O; NMeI = CC[C@H](C)[C@H](NC)C(=O)O; NMeL = CN[C@@H](CC(C)C)C(=O)O; NMeA = CN[C@@H](C)C(=O)O; Piperidide = C1CCN(*)CC1; NPrGly = CCCNCC(=O)O; Sar = CNCC(=O)O; tBu = CC(C)(C)*
property-label: microsomal CLint at 1 uM (µL/min/mg)

INSERT INTO results (compound, assay_result) VALUES
  ('CC(C)C[C@H]1C(=O)N[C@@H](COC(C)(C)C)C(=O)N(C)[C@@H](CC(C)C)C(=O)N[C@H](C(=O)N2CCCCC2)CC(=O)N[C@H](C)C(=O)N(C)[C@@H](C)C(=O)N(C)[C@@H](Cc2ccccc2)C(=O)N(C)[C@@H](CC(C)C)C(=O)N[C@@H]([C@@H](C)O)C(=O)N(C)CC(=O)N1C [DP-170] ([dA][NMeA][NMeF][NMeL]T[Sar][NMeL]S(tBu)[NMeL]D-Piperidide; lactam N-10)', 22),
  ('CCCN1CC(=O)N(C)[C@@H](Cc2ccccc2)C(=O)N[C@@H](C)C(=O)N(C)[C@@H](Cc2ccccc2)C(=O)N(C)[C@@H](CC(C)C)C(=O)N(C)[C@@H]([C@@H](C)CC)C(=O)N(C)[C@@H](CC(C)C)C(=O)N[C@H](C(=O)N2CCCCC2)CC(=O)N(C)CC(=O)N[C@@H](CC(C)C)C(=O)N[C@@H]([C@@H](C)O)C1=O [DP-545] ([Sar]LT[NPrGly][NMeF]A[NMeF][NMeL][NMeI][NMeL]D-Piperidide; lactam N-11)', 36),
  ('CC[C@H](C)[C@H](NC(=O)[C@@H]1CC(=O)N[C@@H](C)C(=O)N[C@@H]([C@@H](C)O)C(=O)N(C)CC(=O)N[C@@H](CC(C)C)C(=O)N2CCC[C@H]2C(=O)N(C)[C@@H](CC(C)C)C(=O)N[C@@H](Cc2ccccc2)C(=O)N(C)[C@@H](Cc2ccccc2)C(=O)N(C)[C@@H](C)C(=O)N(C)[C@@H](CC(C)C)C(=O)N[C@@H](C)C(=O)N(C)[C@@H](CC(C)C)C(=O)N1)C(=O)N1CCCCC1 [DP-955] (AT[Sar]LP[NMeL]F[NMeF][NMeA][NMeL]A[NMeL]DI-Piperidide; lactam N-13)', 30);

----------
method-notes: PAMPA (parallel artificial membrane permeability assay)
Format: in vitro ADME
test-parameters: PAMPA, pH 6.5
Positions of bridges follow the written chain, without caps; N, C: chain ends. Non-standard residues stand in square brackets, D forms with d. Residues, ends and D or L forms follow the SMILES beside them. *: point of attachment. NMeF = CN[C@@H](Cc1ccccc1)C(=O)O; NMeI = CC[C@H](C)[C@H](NC)C(=O)O; NMeL = CN[C@@H](CC(C)C)C(=O)O; NMeV = CN[C@H](C(=O)O)C(C)C; NMeA = CN[C@@H](C)C(=O)O; Piperidide = C1CCN(*)CC1; Sar = CNCC(=O)O
Parameter: Papp at 18 hours, 50 µM. Scope: all listed entries.
property-label: Papp at 18 hours, 50 µM (×10⁻⁶ cm/s)

INSERT INTO results (compound, assay_result) VALUES
  ('CC[C@H](C)[C@@H]1NC(=O)[C@H](C)N(C)C(=O)C[C@@H](C(=O)N(C)[C@@H](Cc2ccccc2)C(=O)N[C@@H](C)C(=O)N2CCCCC2)NC(=O)[C@H](Cc2ccccc2)N(C)C(=O)CN(C)C(=O)[C@H]([C@@H](C)O)NC(=O)[C@H](C)N(C)C(=O)[C@H](C(C)C)N(C)C(=O)[C@H](CC(C)C)N(C)C(=O)[C@H](Cc2ccccc2)NC(=O)[C@H](CC(C)C)N(C)C1=O [DP-279] ([NMeA]I[NMeL]F[NMeL][NMeV][NMeA]T[Sar][NMeF]D[NMeF]A-Piperidide; lactam N-11)', 15),
  ('CC[C@H](C)[C@H]1C(=O)N(C)[C@@H](C)C(=O)N(C)[C@@H](Cc2ccccc2)C(=O)N[C@@H]([C@@H](C)O)C(=O)N(C)[C@@H](Cc2ccccc2)C(=O)N(C)[C@@H](CC(C)C)C(=O)N2CCC[C@H]2C(=O)N[C@H](C(=O)N2CCCCC2)CC(=O)N[C@@H](C)C(=O)NCC(=O)N(C)[C@@H](CC(C)C)C(=O)N1C [DP-16] (AG[NMeL][NMeI][NMeA][NMeF]T[NMeF][NMeL]PD-Piperidide; lactam N-11)', 30);
